System: human red blood cells
Assay type: cell-based
Square brackets hold non-standard residues; d marks the D form. Peptide text beside a SMILES is read from it. 1Nal = N[C@@H](Cc1cccc2ccccc12)C(=O)O; 2Nal = N[C@@H](Cc1ccc2ccccc2c1)C(=O)O; d1Nal = N[C@H](Cc1cccc2ccccc12)C(=O)O; d2Nal = N[C@H](Cc1ccc2ccccc2c1)C(=O)O; Nle = CCCC[C@H](N)C(=O)O
Form field: Haemolysis EC10 (one value per entry).
Express it in µM; write the number only.

Below, 3 compounds whose answers are already recorded.
Consider the compound shown here: CC(C)C[C@H](NC(=O)[C@H](Cc1ccc2ccccc2c1)NC(=O)[C@H](Cc1ccccc1)NC(=O)[C@@H](N)Cc1ccc2ccccc2c1)C(=O)N[C@@H](CCCCN)C(=O)N[C@@H](CCCCN)C(=O)N[C@@H](CCCCN)C(N)=O [Compound 13] (H-[2Nal]F[2Nal]LKKK-NH2; N-terminus assumed) What is its recorded Haemolysis EC10? 110

Same read-out for CC(C)C[C@@H](NC(=O)[C@H](CCCCN)NC(=O)[C@H](CCCCN)NC(=O)[C@@H](N)CCCCN)C(=O)N[C@H](Cc1cccc2ccccc12)C(=O)N[C@H](Cc1ccccc1)C(=O)N[C@H](Cc1cccc2ccccc12)C(N)=O [Compound 15] (H-KKK[dL][d1Nal][dF][d1Nal]-NH2; N-terminus assumed) ? 8

Also need CC(C)C[C@@H](NC(=O)[C@H](CCCCN)NC(=O)[C@H](CCCCN)NC(=O)[C@@H](N)CCCCN)C(=O)N[C@H](Cc1ccc2ccccc2c1)C(=O)N[C@H](Cc1ccc(O)cc1)C(=O)N[C@H](Cc1ccc2ccccc2c1)C(N)=O [Compound 28] (H-KKK[dL][d2Nal][dY][d2Nal]-NH2; N-terminus assumed) , thanks. 6

Others:
Would you kindly share the measured Haemolysis EC10 for CC(C)C[C@H](NC(=O)[C@H](CCCCN)NC(=O)[C@@H](N)CCCCN)C(=O)N[C@@H](CCCCN)C(=O)N[C@@H](Cc1cccc2ccccc12)C(=O)N[C@@H](Cc1ccccc1)C(=O)N[C@@H](Cc1cccc2ccccc12)C(N)=O [Compound 6] (H-KKLK[1Nal]F[1Nal]-NH2; N-terminus assumed) ? 5

What do you have for CC(C)C[C@H](NC(=O)[C@H](CCCCN)NC(=O)[C@@H](N)CCCCN)C(=O)N[C@@H](CCCCN)C(=O)N[C@@H](Cc1ccc2ccccc2c1)C(=O)N[C@@H](Cc1ccccc1)C(=O)N[C@@H](Cc1ccc2ccccc2c1)C(N)=O [Compound 8] (H-KKLK[2Nal]F[2Nal]-NH2; N-terminus assumed) ? 56

Next compound: CC(C)C[C@@H](NC(=O)[C@H](CCCCN)NC(=O)[C@@H](N)CCCCN)C(=O)N[C@@H](CCCCN)C(=O)N[C@H](Cc1cccc2ccccc12)C(=O)N[C@H](Cc1ccccc1)C(=O)N[C@H](Cc1cccc2ccccc12)C(N)=O [Compound 14] (H-KK[dL]K[d1Nal][dF][d1Nal]-NH2; N-terminus assumed) 28

What do we get for CCCC[C@H](NC(=O)[C@H](CCCCN)NC(=O)[C@H](CCCCN)NC(=O)[C@@H](N)CCCCN)C(=O)N[C@@H](Cc1ccc2ccccc2c1)C(=O)N[C@@H](Cc1ccc(O)cc1)C(=O)N[C@@H](Cc1ccc2ccccc2c1)C(N)=O [Compound 27] (H-KKK[Nle][2Nal]Y[2Nal]-NH2; N-terminus assumed) ? 3
